- ASSAY_SUMMARY: Cytotoxicity assay (CellTiter-Glo, 72 h), Jurkat
- Type: cell-based
- EXPERIMENTAL_CONTEXT: human, Jurkat cells (T lymphoma), conc 12.5 uM, raw data (replicates)
Recorded viability at 72 h, 12.5 uM by entry
TEST_READOUT: viability at 72 h, 12.5 uM (%)

COMPOUND: COC1CC2CCC(C)C(O)(O2)C(=O)C(=O)N2CCCCC2C(=O)OC(C(C)CC2CCC(O)C(OC)C2)CCC(C)C=C(C)C(O)C(OC)C(=O)C(C)CC(C)C=CC=CC=C1C (stereo not drawn)
TEST_READOUT: viability at 72 h, 12.5 uM
VAL: 11.9
--
COMPOUND: CO[C@@H]1C[C@H](C[C@@H](C)[C@@H]2CC(=O)[C@H](C)/C=C(\C)[C@@H](O)[C@@H](OC)C(=O)[C@H](C)C[C@H](C)/C=C/C=C/C=C(\C)[C@H](O)C[C@@H]3CC[C@@H](C)[C@@](O)(O3)C(=O)C(=O)N3CCCC[C@H]3C(=O)O2)CC[C@H]1O [Compound 17, (16R)-16-O-demethyl rapamycin]
TEST_READOUT: viability at 72 h, 12.5 uM
VAL: 30.5
--
COMPOUND: COC1CC2CCC(C)C(O)(O2)C(=O)C(=O)N2CCCCC2C(=O)OC(C(C)CC2CCC(O)C(OC)C2)CC(=O)C(C)C=C(C)C(O)C(OC)C(=O)C(C)CC(C)C=CCCC=C1C (stereo not drawn)
TEST_READOUT: viability at 72 h, 12.5 uM
VAL: 25.9

* * *

Recorded viability at 72 h, 0.78125 uM by entry
- ASSAY_SUMMARY: Cytotoxicity assay (CellTiter-Glo, 72 h), Jurkat
- Assay type: cell-based
- EXPERIMENTAL_CONTEXT: human, Jurkat cells (T lymphoma), conc 0.78125 uM, raw data (replicates)
TEST_READOUT: viability at 72 h, 0.78125 uM (%)

COMPOUND: CO[C@@H]1/C=C/C=C/[C@@H](C)C[C@@H](C)C(=O)C[C@H](O)/C(C)=C/[C@@H](C)C(=O)C[C@@H]([C@H](C)C[C@@H]2CC[C@@H](O)[C@H](OC)C2)OC(=O)[C@@H]2CCCCN2C(=O)C(=O)[C@]2(O)O[C@@H](CC[C@H]2C)C1 [Compound 9]
TEST_READOUT: viability at 72 h, 0.78125 uM
VAL: 42.4
--
COMPOUND: CO[C@H]1C[C@@H]2CC[C@@H](C)[C@@](O)(O2)C(=O)C(=O)N2CCCC[C@H]2C(=O)O[C@H]([C@H](C)C[C@@H]2CC[C@@H](O)[C@H](OC)C2)CC(=O)[C@H](C)/C=C(\C)[C@@H](O)[C@@H](OC)C(=O)[C@H](C)C[C@H](C)/C=C/C=C/C=C/1C [Compound 1, rapamycin, reference compound]
TEST_READOUT: viability at 72 h, 0.78125 uM
VAL: 23.7
--
COMPOUND: COC1CC2CCC(C)C(O)(O2)C(=O)C(=O)N2CCCCC2C(=O)OC(C(C)CC2CCC(O)C(OC)C2)CCC(C)C=C(C)C(O)C(OC)C(=O)C(C)CC(C)C=CC=CC=C1C (stereo not drawn) [Compound 16, 32-desketorapamycin]
TEST_READOUT: viability at 72 h, 0.78125 uM
VAL: 22.1
